Molecular target: Platelet-activating factor receptor (Homo sapiens, UniProt P25105)
Sequence (P25105 whole entry): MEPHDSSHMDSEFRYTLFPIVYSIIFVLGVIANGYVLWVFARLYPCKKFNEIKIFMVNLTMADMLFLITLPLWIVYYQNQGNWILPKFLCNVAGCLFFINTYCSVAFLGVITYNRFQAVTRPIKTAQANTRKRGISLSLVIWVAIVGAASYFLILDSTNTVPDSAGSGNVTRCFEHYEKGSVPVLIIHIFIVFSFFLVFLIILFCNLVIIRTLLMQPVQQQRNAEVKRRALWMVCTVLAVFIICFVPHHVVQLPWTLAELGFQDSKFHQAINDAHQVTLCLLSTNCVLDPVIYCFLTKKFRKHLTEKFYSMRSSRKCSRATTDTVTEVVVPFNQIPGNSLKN
Measured IC50, listed per entry for reference.

entry-smiles | IC50 [nM]
COc1cc(CCc2ccc(C3=Cc4ccccc4C4=NCCCN34)cc2)cc(OC)c1OC | 40
COc1cc(CCc2ccc(C3=Cc4ccsc4C4=NCCN34)cc2)cc(OC)c1OC | 10
COc1cc(CCc2ccc(C3=Nc4ccccc4C4=NCCN34)cc2)cc(OC)c1OC | 1140
COc1cc(CCc2ccc(-c3cc4ccccc4c4nccn34)cc2)cc(OC)c1OC | 89000
COc1cc(CCc2ccc(C3=Cc4ccccc4C4=NCC(C)(C)CN34)cc2)cc(OC)c1OC | 500
COc1cc(CCc2ccc(-c3cc4ccccc4c4nc(C)cn34)cc2)cc(OC)c1OC | 35000

* * *

System: Cavia porcellus
Assay: In vivo PAF induced bronchoconstriction tested in guinea pig
Format: functional

compound | lt-gt-eq | ED50 [mg/kg]
COc1cc(CCc2ccc(C3=Cc4ccccc4C4=NCCCN34)cc2)cc(OC)c1OC | = | 4.7
COc1cc(CCc2ccc(C3=Cc4ccccc4C4=NCCN34)cc2)cc(OC)c1OC | = | 4.2
COc1cc(CCc2ccc(C3=Cc4ccsc4C4=NCCN34)cc2)cc(OC)c1OC | = | 0.8
COc1cc(CCc2ccc(C3=Cc4oc(C)cc4C4=NCCN34)cc2)cc(OC)c1OC | > | 10
COc1cc(CCc2ccc(C3=Nc4ccccc4C4=NCCN34)cc2)cc(OC)c1OC | = | 31.4
COc1cc(CCc2ccc(C3=Cc4ccccc4C4=NC(C)CN34)cc2)cc(OC)c1OC (stereo unspecified) | = | 16

From: ChEMBL document CHEMBL1127075
